# Test system: SK-MEL-2 melanoma
# test details: NCI-60 one-dose screen, 48 h
# experimental context: 10 µM unless noted
About 83,000 compounds went through this panel and 20% of them were active in at least one assay; those are over-represented in the sample as a whole. Active and inactive are the calls of the source. How the source made its calls: active means growth percent below 10; inactive means the rest.
Your reply should match one of these outcome classes. YES (active), NO (inactive)

Please review the following examples before continuing.
- compound: "CCCCCCCC/C=C/CCCCCCCC1=NC(C)(C)CN1C(C)(C)CO"
  label value: "NO"
- compound: "CC(=O)Oc1csc(N(C(C)=O)c2cc(C(=O)O)cc(C(=O)O)c2)n1"
  label value: "NO"
- compound: "COc1ccc(C2CC(c3ccc(OC)cc3OC)=NN2c2ccc(S(N)(=O)=O)cc2)cc1 (centres undefined)"
  label value: "NO"

Query: recorded result category for OC(c1cc2cc(Br)ccc2c2cc(Br)ccc12)C1CCCCN1 (centres undefined) in this test YES

----------
# Tested on: RXF 393 renal
# test details: NCI-60 one-dose screen, 48 h (100 = growth as untreated, 0 = no growth, -100 = all killed)
# experimental context: 10 µM unless noted
This is part of a sample that, as a whole, favours compounds with a hit. Of some 83,000 tested, about 20% had one in any assay.
quantity: growth (%)
Write the value in % as a bare number.

Study these solved cases before continuing.
- compound: "O=C1NN(C(=O)c2ccc(Cl)cc2)C(c2ccccc2)=N/C1=C\\c1ccc(F)cc1"
  growth / %: 84.2
- compound: "COC(=O)c1nc(-c2ccccc2)oc1S(=O)(=O)N1CCN(c2cccc(Cl)c2)CC1"
  growth / %: 84
- compound: "COc1ccc(S(=O)(=O)NCCCNc2nccc(-c3c(-c4cccc([N+](=O)[O-])c4)nc4sccn34)n2)cc1"
  growth / %: 67.1
- compound: "COc1cc(-c2nn(-c3cccc(NC(=O)Nc4ccc(Cl)c(Cl)c4)c3)cc2-c2ccncc2)ccc1Cl"
  growth / %: -22.8
- compound: "Oc1ccccc1/C=N/NC(=S)NC1CC2C=CC1C2 (stereo not drawn)"
  growth / %: 68.3

# return recorded growth for entry CC(C)CC1NC(C)(C)CO1 (stereo not drawn) 109

# return recorded growth for entry Clc1ccc(-c2nc3ccccc3s2)cc1Cl 109

# return recorded growth for entry N[C@H]1CN(C(=O)c2cc3cc(Br)c(F)c(F)c3[nH]2)C[C@@H]1O 103

----------
# Test system: SK-MEL-2 melanoma
# test details: NCI-60 one-dose screen, 48 h (100 = growth as untreated, 0 = no growth, -100 = all killed)
# experimental context: 10 µM unless noted
About 83,000 compounds went through this panel and 20% of them were active in at least one assay; those are over-represented in the sample as a whole.
Measured growth values are reported for all entries that follow.
Write the value in % as a bare number.

Study these solved cases before continuing.
- compound: "Cc1ccc(S(=O)(=O)NCCNc2nccc(-c3c(-c4ccc(O)cc4)nc4sccn34)n2)cc1"
  recorded value: 114
- compound: "COc1cc(C(=O)/C=C/c2c(C)n([O-])c3ccc(C(F)(F)F)cc3[n+]2=O)cc(OC)c1OC"
  recorded value: 95.5
- compound: "Cc1nc2c3c(ncn2n1)Oc1c(c(=O)[nH]c2ccccc12)C3c1ccc(Cl)cc1 (centres undefined)"
  recorded value: 101

Could you now look at the following compound, please?
# return recorded growth for entry Nc1cc2c([nH]c[n+]2CC#CCCl)c(SCC#CCCl)n1 -30
